# Test system: ZR-75-1
# assay.remarks: viability inhibition at highest dose (% inhibition); higher = more growth inhibition
# condition.details: 4-OH-tamoxifen in medium 1 µM; 72 h
Note to self: use satisfied only for viability inhibition at highest dose readings below -1; a reading exactly at -1 still gets not satisfied.

Here's what some known entries look like.
C[C@@]1(C(=O)Nc2ccc(F)nc2)CCCN1c1nc(Nc2cc(C3CC3)n[nH]2)c2cccn2n1 (drug 10000 nM) | satisfied
CCCS(=O)(=O)Nc1ccc(F)c(C(=O)c2c[nH]c3ncc(-c4ccc(Cl)cc4)cc23)c1F [Vemurafenib (PLX4032)] (drug 10000 nM) | not satisfied
C#Cc1cccc(Nc2ncnc3cc(OC)c(OCCCCCCC(=O)NO)cc23)c1 [CUDC-101] (drug 10000 nM) | not satisfied
c1ccc2c(CCNc3ccc(Nc4ccncc4)cc3)c[nH]c2c1 (drug 10000 nM) | not satisfied
Cn1cncc1[C@@](N)(c1ccc(Cl)cc1)c1ccc2c(c1)c(-c1cccc(Cl)c1)cc(=O)n2C [Tipifarnib (Zarnestra)] (drug 10000 nM) | not satisfied

Does this molecule meet the criterion viability inhibition at highest dose < -1? CN(Cc1cnc2nc(N)nc(N)c2n1)c1ccc(C(=O)N[C@@H](CCC(=O)O)C(=O)O)cc1 [Methotrexate] (drug 10000 nM) not satisfied

Strictly below -1 in viability inhibition at highest dose? C[C@]12CC[C@@H]3c4ccc(O)cc4C[C@@H](CCCCCCCCC[S+]([O-])CCCC(F)(F)C(F)(F)F)[C@H]3[C@@H]1CC[C@@H]2O (some centres undefined) [Fulvestrant] (drug 1000 nM) satisfied

Below -1 on viability inhibition at highest dose? Entry O=P1(N(CCCl)CCCl)NCCCO1 (centres undefined) [Clafen (Cyclophosphamide, Endoxan)] (drug 40000 nM) satisfied

Input CNC(=O)c1ccc(N2C(=S)N(c3ccc(C#N)c(C(F)(F)F)c3)C(=O)C23CCC3)cc1F [RD162] (drug 10000 nM) ; condition: viability inhibition at highest dose strictly below -1. Does it hold? not satisfied

Hello, is viability inhibition at highest dose of the following molecule strictly smaller than -1? CN1CCN(c2nc(C3=C(c4c[nH]c5ccccc45)C(=O)NC3=O)c3ccccc3n2)CC1 [Sotrastaurin] (drug 10000 nM) not satisfied

Input CC[C@H](CO)Nc1nc(NCc2ccccc2)c2ncn(C(C)C)c2n1 [Seliciclib (Roscovitine)] (drug 10000 nM) ; condition: viability inhibition at highest dose strictly below -1. Does it hold? satisfied

I wonder whether O=P(O)(O)C(O)(Cn1ccnc1)P(=O)(O)O [Zoledronic acid] (drug 10000 nM) has viability inhibition at highest dose below -1. Can you tell? satisfied

I'd appreciate it if you could check whether CO[C@@]12[C@H](COC(N)=O)C3=C(C(=O)C(C)=C(N)C3=O)N1C[C@@H]1N[C@@H]12 [Mitomycin C] (drug 10000 nM) has viability inhibition at highest dose smaller than -1. not satisfied

Could you please tell me whether viability inhibition at highest dose recorded for COc1ncc(-c2ccc3nccc(-c4ccnnc4)c3c2)cc1NS(=O)(=O)c1ccc(F)cc1F (drug 1000 nM) is less than -1? not satisfied

* * *

# reported relative IC50; entries follow
# Tested on: MCF-7
# assay.remarks: relative IC50 (midpoint of fitted logistic curve, plateau may be below 50% inhibition; CellTiter-Glo viability); higher = less potent
# condition.details: 4-OH-tamoxifen in medium 1 µM; 72 h

Requested read-out: relative IC50. Entry: COC(=O)C[C@](O)(CCCC(C)(C)O)C(=O)O[C@@H]1C(OC)=C[C@]23CCCN2CCc2cc4c(cc2[C@H]13)OCO4 [Omacetaxine (Homoharringtonine)] 0.0167 µM

Quick one: relative IC50 for CCN(CC)CCCC(C)Nc1ccnc2cc(Cl)ccc12 (stereo not drawn) [Chloroquine] ? > 990 µM

# relative IC50 lookup, item CCCS(=O)(=O)Nc1ccc(F)c(C(=O)c2c[nH]c3ncc(-c4ccc(Cl)cc4)cc23)c1F [Vemurafenib (PLX4032)] > 10 µM
